The reported numbers originate from paper PMC9482650.

- System name: T1, DFNB31_1, Q9P202
- T1 sequence (Q9P202 135-233, limits assumed, looked up): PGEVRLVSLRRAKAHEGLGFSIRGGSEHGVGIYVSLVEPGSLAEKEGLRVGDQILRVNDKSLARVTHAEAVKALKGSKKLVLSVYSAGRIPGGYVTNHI
- Assay protocol: holdup assay
- Parameters: key: below the threshold = too weak to quantify, mostly under pKd 3.1 to 4
- Test context: plain residues with an end cap or a label only (N-terminal biotin on a linker: ado-ado)
Property name: pKd

HDDYFYHDEL [RCN2, Q14257]    below the threshold
THHRKIHTRV [ZNF599, Q96NL3]    3.82
DYSNLRETDI [ADRA1D, P25100]    5.02
VISSDDLTEL [CAPN6, Q9Y6Q1]    3.56

// query If you can, please state the reported pKd value of HYPASPDSWV [CTNND2, Q9UQB3] .
// result 4.34

// query Try the binder TFSRRPKTRV [CD226, Q15762]
// result below the threshold

// query Try the binder YAEKRMLTEV [KCNA6, P17658]
// result below the threshold

// query Try the binder LVEEEEPMNL [HDAC7, Q8WUI4]
// result below the threshold

// query Try the binder VKQYADVEGF [HNRNPK, P61978;P61978-2]
// result below the threshold
